The reported measurements were obtained from ChEMBL document CHEMBL1201862.

Kindly supply the reported GI50 values for the records listed here.
# System: SNB-19
# Assay Comment: NCI tumour cell line growth inhibition, 48 h
Active and inactive are the calls of the source. No stated cut-off is given here; in the data, active = GI50 up to about 1.1 µM and inactive = higher.

Please state GI50 for every compound in the list that follows.
1. CCOC1Oc2ccccc2-c2nc(N)ncc21 (configuration not stated)
2. CN(C)CCNC(=O)c1ccc(Cl)c2c(Nc3ccc(S(=O)(=O)N=C(N)N)cc3)c3ccccc3nc12
3. Cc1cccc2c1c1ccc3c(c1n2C)C(=O)C=CC3=O
4. O=C(O)C1[C@@H](C(=O)O)C1(Br)CBr (some centres not stated)
5. CCN(CC)CCCNc1nncc2c(C)c3[nH]c4ccccc4c3cc12

1. > 100 µM (inactive)
2. 1.85 µM (inactive)
3. 16.7 µM (inactive)
4. > 100 µM (inactive)
5. 0.644 µM (active)

State the recorded GI50 for every item in the following list.
1. CC(=O)N1N=C(N)CC1=O
2. NCc1nnn(Cc2ccccc2)c1N

1: > 100 µM (inactive); 2: > 100 µM (inactive)

* * *

# System: MCF7
# Assay Comment: NCI tumour cell line growth inhibition, 48 h
Active and inactive are the calls of the source. Rule as the data show it: active = GI50 up to about 1.1 µM and inactive = higher.
Valid outcomes are listed here; reply with one: active, inactive

Illustrative cases are given below, each with its answer.
Molecule: CC1(CO)C(O)CCC2(C)C1CCC1CC3CC12CCC3(O)CO (centres undefined)
Tested System: MCF7
Label Class: inactive
--
Molecule: O=C(O)CCC(NC(=O)c1ccc(Nc2cnc3cc(C(F)(F)F)ccc3n2)cc1)C(=O)O (centres undefined)
Tested System: MCF7
Label Class: inactive
--
Molecule: N#CI1OC(C(F)(F)F)(C(F)(F)F)c2ccccc21
Tested System: MCF7
Label Class: inactive
--
Molecule: COc1cc(C2c3cc4c(cc3OC(NCCO)C2C)OCO4)cc(OC)c1OC (centres undefined)
Tested System: MCF7
Label Class: active
--
Molecule: COc1ccc2nc(-c3ccc(O)cc3)sc2c1
Tested System: MCF7
Label Class: inactive
--
Molecule: CC(C)(C)OC(=O)NC(Cc1ccc(OCc2ccccc2)cn1)C(=O)NCc1ccccc1 (centres undefined)
Tested System: MCF7
Label Class: inactive
--
Molecule: Cc1cc2c(c(S(=O)(=O)c3ccccc3[N+](=O)[O-])c1)NCCC2
Tested System: MCF7
Label Class: inactive
--
Molecule: O=C1CC(=O)NC(NNS(=O)(=O)c2ccccc2)=N1
Tested System: MCF7
Label Class: inactive
--
Molecule: N=c1oc2cc(O)ccc2cc1C(=O)Nc1ccccn1
Tested System: MCF7
Label Class: inactive
--
Molecule: CC[C@]1(Cc2ccc(OC)c(OC)c2)C=[N+]([O-])O[C@H](OCc2ccccc2)[C@@H]1OC(C)=O
Tested System: MCF7
Label Class: inactive

Please indicate how the test categorized O=C1C=CC[C@H]2O[C@@H](COC(=O)Cc3ccccc3)C[C@H]2O1 . inactive

Name the outcome recorded for COc1cc(/C=C2\CCC(C)C3=C2NC(=S)NC3c2cc(OC)c(OC)c(OC)c2)cc(OC)c1OC (centres undefined) in the assay. inactive

I'd appreciate the recorded outcome for O=C1CC(C(=O)N2CCCCC2)n2c(=O)n(-c3ccccc3)c(=O)n2C1 (centres undefined) from this test. inactive

For Cc1cc(S(=O)(=O)N/C(=C(\C#N)C(=O)c2ccccc2)[n+]2ccc(N(C)C)cc2)c([S-])cc1Cl , which call appears in the assay record? inactive
